test system: HT-3 (Cervical Carcinoma); assay: Bliss excess, mean over the matrix (fraction); higher = more synergy
Endpoint: Bliss excess
Enter a number only.

Input COc1cccc(OCCCN)c1-c1cc(Nc2cnc(C#N)cn2)n[nH]1 [Prexasertib] + C[C@@H]1COCCN1C2=NC(=NC(=C2)C3(CC3)[S@](=N)(=O)C)C4=C5C=CNC5=NC=C4 [AZD6738] (first compound max 1 µM, 7x7, partner max 10 µM) . Output Bliss excess: 0.0202

Input Cc1cc2ncnn2cc1Nc1ncc2c(n1)n(C1CCOCC1)c(=O)n2C [AZD7648] + CN(C)CCCOc1ccc(-c2ccc3ncc4c(c3c2)n(C2CCOCC2)c(=O)n4C)cn1 [AZD0156] (first compound max 10 µM, 7x7, partner max 1 µM) . Output Bliss excess: 0.0226

---

test system: SW1463 (Colorectal Carcinoma); assay: Bliss excess, mean over the matrix (fraction); higher = more synergy
Would you mind telling me the reported Bliss excess of each entry?
Enter a number only.

Value (Bliss excess, SW1463 (Colorectal Carcinoma)) for record NC1(C(=O)N[C@@H](CCO)c2ccc(Cl)cc2)CCN(c2ncnc3[nH]ccc23)CC1 [Capivasertib] + CC(C)n1c(=O)n(C)c2cnc3cc(F)c(-c4ccc(OCCCN5CCCCC5)nc4)cc3c21 [AZD1390] (first compound max 10 µM, 7x7, partner max 0.3 µM) = -0.0196

Value (Bliss excess, SW1463 (Colorectal Carcinoma)) for record COc1cccc(OCCCN)c1-c1cc(Nc2cnc(C#N)cn2)n[nH]1 [Prexasertib] + CCc1c2c(nc3ccc(O)cc13)-c1cc3c(c(=O)n1C2)COC(=O)[C@]3(O)CC [SN-38] (first compound max 1 µM, 7x7, partner max 0.3 µM) = 0.0515

Value (Bliss excess, SW1463 (Colorectal Carcinoma)) for record COc1nnc2ccc(N3CCC(c4ccc(OCCN5CCN(C)C(=O)[C@H]5C)cc4)CC3)nn12 [AZD5153] + CCN(CCO)CCCOc1ccc2c(Nc3cc(CC(=O)Nc4cccc(F)c4)[nH]n3)ncnc2c1 [AZD2811] (first compound max 1 µM, 7x7, partner max 1 µM) = -0.0452

Value (Bliss excess, SW1463 (Colorectal Carcinoma)) for record Cc1c2c(nn1C)CSCc1cc(n(C)n1)CSc1cc(c3ccccc3c1)OCCCc1c(C(=O)O)n(C)c3c-2c(Cl)ccc13 [AZD5991] + CS(=O)(=O)CCNCc1ccc(-c2ccc3ncnc(Nc4ccc(OCc5cccc(F)c5)c(Cl)c4)c3c2)o1 [Lapatinib] (first compound max 1 µM, 7x7, partner max 10 µM) = 0.0331

---

Would you mind telling me the reported combination Emax of each entry?
tested on: NCI-H2009 (Lung Adenocarcinoma); assay: combination Emax (second highest fraction inhibited in the dose matrix, 72 h); higher = more inhibition; extreme values may be limits of the assay

Input CS(=O)(=O)CCNCc1ccc(-c2ccc3ncnc(Nc4ccc(OCc5cccc(F)c5)c(Cl)c4)c3c2)o1 [Lapatinib] + C[C@@H](Oc1cc(-c2cnn(C3CCNCC3)c2)cnc1N)c1c(Cl)ccc(F)c1Cl [Crizotinib] (first compound max 10 µM, 7x7, partner max 10 µM) . Output combination Emax: 0.732

Input NC1(C(=O)N[C@@H](CCO)c2ccc(Cl)cc2)CCN(c2ncnc3[nH]ccc23)CC1 [Capivasertib] + Cn1cnc2c(F)c(Nc3ccc(Br)cc3Cl)c(C(=O)NOCCO)cc21 [Selumetinib] (first compound max 10 µM, 7x7, partner max 10 µM) . Output combination Emax: 0.584

Input CC(=O)c1c(C)c2cnc(Nc3ccc(N4CCNCC4)cn3)nc2n(C2CCCC2)c1=O [Palbociclib] + CC1(C)CCC(CN2CCN(c3ccc(C(=O)NS(=O)(=O)c4ccc(NCC5CCOCC5)c([N+](=O)[O-])c4)c(Oc4cnc5[nH]ccc5c4)c3)CC2)=C(c2ccc(Cl)cc2)C1 [Venetoclax] (first compound max 10 µM, 7x7, partner max 1 µM) . Output combination Emax: 0.0582

Input CC(=O)c1c(C)c2cnc(Nc3ccc(N4CCNCC4)cn3)nc2n(C2CCCC2)c1=O [Palbociclib] + Cn1cnc2c(F)c(Nc3ccc(Br)cc3Cl)c(C(=O)NOCCO)cc21 [Selumetinib] (first compound max 10 µM, 7x7, partner max 10 µM) . Output combination Emax: 0.363

Input C[C@@H](c1ccc2nccn2c1)n1nnc2ncc(-c3cnn(C)c3)nc21 [Savolitinib] + CC1(C)CCC(CN2CCN(c3ccc(C(=O)NS(=O)(=O)c4ccc(NCC5CCOCC5)c([N+](=O)[O-])c4)c(Oc4cnc5[nH]ccc5c4)c3)CC2)=C(c2ccc(Cl)cc2)C1 [Venetoclax] (first compound max 1 µM, 7x7, partner max 1 µM) . Output combination Emax: 0.204

Input O=C(c1cc(Cc2n[nH]c(=O)c3ccccc23)ccc1F)N1CCN(C(=O)C2CC2)CC1 [Olaparib] + CC1(C)CCC(CN2CCN(c3ccc(C(=O)NS(=O)(=O)c4ccc(NCC5CCOCC5)c([N+](=O)[O-])c4)c(Oc4cnc5[nH]ccc5c4)c3)CC2)=C(c2ccc(Cl)cc2)C1 [Venetoclax] (first compound max 10 µM, 7x7, partner max 1 µM) . Output combination Emax: 0.174

Input CC1(C)CCC(CN2CCN(c3ccc(C(=O)NS(=O)(=O)c4ccc(NCC5CCOCC5)c([N+](=O)[O-])c4)c(Oc4cnc5[nH]ccc5c4)c3)CC2)=C(c2ccc(Cl)cc2)C1 [Venetoclax] + C1CN(CCC1(C(=O)N[C@@H](CCO)C2=CC=C(C=C2)Cl)N)C3=NC=NC4=C3C=CN4 [Capivasertib] (first compound max 1 µM, 7x7, partner max 3 µM) . Output combination Emax: 0.128

All figures here come from the supplement of paper PMC11061612.
